Data credit: the supplement of paper PMC9233669

# reported self-aminoacylation; entries follow
# Tested on: biotinyl-Ile-oxazolone
# Test name: self-aminoacylation, catalytic enhancement (BIO) (fold over background); higher = more active; k-Seq, kA / k0A0; sequences stand for … in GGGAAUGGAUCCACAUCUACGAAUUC…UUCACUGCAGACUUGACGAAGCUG
This sample holds only a part of the variants without activity.

Sequence code | Recorded value
AAGUUUACUAAUAGUCGCAAU [Fam3.1 aminoacylation ribozyme variant] | 1.86

# query: self-aminoacylation | item CCACACUGCAAGCAAUCGGCC [Fam1B.1 aminoacylation ribozyme variant] | system: biotinyl-Ile-oxazolone
3.29

Would you mind doing CCACACUUCACGCUAUCGGUC [Fam1B.1 aminoacylation ribozyme variant] as well?
1.13

---

# Tested on: biotinyl-Val-oxazolone
# Test name: self-aminoacylation, catalytic enhancement (BVO) (fold over background); higher = more active; k-Seq, kA / k0A0; sequences stand for … in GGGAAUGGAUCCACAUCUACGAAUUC…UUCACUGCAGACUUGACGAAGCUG
This sample holds only a part of the variants without activity.
Quantity kind: self-aminoacylation
// response body must contain only the number

Sequence code | Quantity kind | Recorded value
AUUACCCUGGCCAUCGAGUGU [Fam2.1 aminoacylation ribozyme variant] | self-aminoacylation | 1.93
AUUACCUUGGUAAUCGAGUGA [Fam2.1 aminoacylation ribozyme variant] | self-aminoacylation | 3.87
AUUCAACUACGUCAUCGGGUG [Fam2.2 aminoacylation ribozyme variant] | self-aminoacylation | 2.95
CGACUUCAAAGAAUCGGUCUG [Fam1A.1 aminoacylation ribozyme variant] | self-aminoacylation | 1.3
AUUACCUUGGUCUUCGAGUGA [Fam2.1 aminoacylation ribozyme variant] | self-aminoacylation | 4.04

Quick check: self-aminoacylation of CCACACUUCAAGUAAUCGUUC [Fam1B.1 aminoacylation ribozyme variant] ?
0.801

Next record, please: CCACUUAAAACAAUCGGUCUG [Fam1A.1 aminoacylation ribozyme variant]
1.13

Queued: CUACUUCAUACAAUCGGUCAG [Fam1A.1 aminoacylation ribozyme variant]
0.699

---

# System: biotinyl-Met-oxazolone
# Test name: self-aminoacylation, catalytic enhancement (BMO) (fold over background); higher = more active; k-Seq, kA / k0A0; sequences stand for … in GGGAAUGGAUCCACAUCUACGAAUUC…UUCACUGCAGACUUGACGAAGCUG
Variants at the floor of the assay were thinned out.
Parameter self-aminoacylation: see the listing below.
Answer field: number only, no words.

These recorded examples may help you get a feel for the data.
Sequence code | Quantity kind | Recorded value
CCACGCUUCAAGCAAUCCGUC [Fam1B.1 aminoacylation ribozyme variant] | self-aminoacylation | 0.507
CCACACUUCAAGCAGUCGGUG [Fam1B.1 aminoacylation ribozyme variant] | self-aminoacylation | 2.34
AUUACCCUAGUCAUCGAAUGA [Fam2.1 aminoacylation ribozyme variant] | self-aminoacylation | 1.02
AUUCACGUAGGUCAUUGGGUG [Fam2.2 aminoacylation ribozyme variant] | self-aminoacylation | 4.43
AUUCACCUAGGGCAUCAGGUG [Fam2.2 aminoacylation ribozyme variant] | self-aminoacylation | 1.6
AUUCCCCUGGUCAUCGAGUGC [Fam2.1 aminoacylation ribozyme variant] | self-aminoacylation | 1.35
CCACACCUCAAACAAUCGGUC [Fam1B.1 aminoacylation ribozyme variant] | self-aminoacylation | 1.04
AAGUUUGCAAAUAGUCGCAAG [Fam3.1 aminoacylation ribozyme variant] | self-aminoacylation | 0.734
AUUAUCCUGGUCAUCGAGCGA [Fam2.1 aminoacylation ribozyme variant] | self-aminoacylation | 1.59
CUUCACCUAAGUCAUCGGGUG [Fam2.2 aminoacylation ribozyme variant] | self-aminoacylation | 6.58

// next entry
Consider the sequence shown here: UUGCACCUAGGUCAUCGGGUG [Fam2.2 aminoacylation ribozyme variant] What is its recorded self-aminoacylation?
3.89
